Every entry's value here was drawn from the supplement of paper PMC9732359.

- measurement.description: protein stability index of a GFP-peptide fusion (yeast GPS) (PSI 1-4); higher = more stable; sorted into four equal gates, so the index is relative within each strain
- assay.setup: doa10∆
Each entry below lists one item and its recorded protein stability index value.

[
  {
    "ordered.residues": "GVTIEFSTNVKDEIVLS [RPL9A]",
    "protein stability index": 3.09
  },
  {
    "ordered.residues": "PIDAGLNEAPFPEENII [MCD1]",
    "protein stability index": 3.01
  },
  {
    "ordered.residues": "PPETKLPYPTYWSDKKA [SNF5]",
    "protein stability index": 2.91
  },
  {
    "ordered.residues": "TRSQFCLNTQRGDSTET [RRI1]",
    "protein stability index": 3.07
  },
  {
    "ordered.residues": "DLQRTQTLSEKEYQCSA [YIL149C/MLP2]",
    "protein stability index": 2.98
  }
]

---

Each entry below lists one item and its recorded protein stability index value.
- measurement.description: protein stability index of a GFP-peptide fusion (yeast GPS) (PSI 1-4); higher = more stable; sorted into four equal gates, so the index is relative within each strain
- assay.setup: san1∆

[
  {
    "ordered.residues": "QAYEEIISSNENALIEL [YIL149C/MLP2]",
    "protein stability index": 2.92
  },
  {
    "ordered.residues": "PIDAGLNEAPFPEENII [MCD1]",
    "protein stability index": 3.06
  },
  {
    "ordered.residues": "HIQEEEEQDVDMTGDEE [RPC19]",
    "protein stability index": 3.05
  },
  {
    "ordered.residues": "VVSAVGEARNDIENKEE [YAR002W/NUP60]",
    "protein stability index": 3.08
  },
  {
    "ordered.residues": "KKNNAASELANPYSSYV [YAR002W/NUP60]",
    "protein stability index": 2.98
  },
  {
    "ordered.residues": "DKHLYHVLYKESKGNAF [RPL19A]",
    "protein stability index": 2.96
  },
  {
    "ordered.residues": "FMKSVIRSREAFSYEQA [DIS3]",
    "protein stability index": 2
  },
  {
    "ordered.residues": "IGESARIIREMFAYAKE [RPT4]",
    "protein stability index": 2.04
  }
]

---

Each entry below lists one item and its recorded protein stability index value.
- measurement.description: protein stability index of a GFP-peptide fusion (yeast GPS) (PSI 1-4); higher = more stable; sorted into four equal gates, so the index is relative within each strain
- assay.setup: san1∆

[
  {
    "ordered.residues": "VIITDGTLLREDDNTPA [YDL088C/ASM4]",
    "protein stability index": 2.94
  },
  {
    "ordered.residues": "DKKHFNNKNKRVTGAGG [RPC53]",
    "protein stability index": 3.16
  },
  {
    "ordered.residues": "RNEKRMFLEFQSTQTDL [SMC2]",
    "protein stability index": 3.24
  },
  {
    "ordered.residues": "GRKVLQKVQGESHIDSR [SIR4]",
    "protein stability index": 3.17
  },
  {
    "ordered.residues": "LALENGEITKTENEKFI [NUT1]",
    "protein stability index": 3.44
  },
  {
    "ordered.residues": "CASIPIAIIKDTSDIIV [RRP46]",
    "protein stability index": 1.75
  },
  {
    "ordered.residues": "DSVFEQNEMIDAIAVTK [RPL3]",
    "protein stability index": 2.31
  },
  {
    "ordered.residues": "KDQIQAGKWFDPVLDWR [SIR4]",
    "protein stability index": 2.95
  },
  {
    "ordered.residues": "GKSEKLSLLLVEDKIPL [SKI6]",
    "protein stability index": 3.23
  },
  {
    "ordered.residues": "AQSVGCRVDFKNPHDII [RPL12A]",
    "protein stability index": 2.23
  },
  {
    "ordered.residues": "IYHGNHDVGELFWKVKE [PRE2]",
    "protein stability index": 2.02
  }
]
